These data points were gathered from paper PMC6125496.

- target_desc: hERG (Homo sapiens, UniProt Q12809)
- Sequence (Q12809 whole entry): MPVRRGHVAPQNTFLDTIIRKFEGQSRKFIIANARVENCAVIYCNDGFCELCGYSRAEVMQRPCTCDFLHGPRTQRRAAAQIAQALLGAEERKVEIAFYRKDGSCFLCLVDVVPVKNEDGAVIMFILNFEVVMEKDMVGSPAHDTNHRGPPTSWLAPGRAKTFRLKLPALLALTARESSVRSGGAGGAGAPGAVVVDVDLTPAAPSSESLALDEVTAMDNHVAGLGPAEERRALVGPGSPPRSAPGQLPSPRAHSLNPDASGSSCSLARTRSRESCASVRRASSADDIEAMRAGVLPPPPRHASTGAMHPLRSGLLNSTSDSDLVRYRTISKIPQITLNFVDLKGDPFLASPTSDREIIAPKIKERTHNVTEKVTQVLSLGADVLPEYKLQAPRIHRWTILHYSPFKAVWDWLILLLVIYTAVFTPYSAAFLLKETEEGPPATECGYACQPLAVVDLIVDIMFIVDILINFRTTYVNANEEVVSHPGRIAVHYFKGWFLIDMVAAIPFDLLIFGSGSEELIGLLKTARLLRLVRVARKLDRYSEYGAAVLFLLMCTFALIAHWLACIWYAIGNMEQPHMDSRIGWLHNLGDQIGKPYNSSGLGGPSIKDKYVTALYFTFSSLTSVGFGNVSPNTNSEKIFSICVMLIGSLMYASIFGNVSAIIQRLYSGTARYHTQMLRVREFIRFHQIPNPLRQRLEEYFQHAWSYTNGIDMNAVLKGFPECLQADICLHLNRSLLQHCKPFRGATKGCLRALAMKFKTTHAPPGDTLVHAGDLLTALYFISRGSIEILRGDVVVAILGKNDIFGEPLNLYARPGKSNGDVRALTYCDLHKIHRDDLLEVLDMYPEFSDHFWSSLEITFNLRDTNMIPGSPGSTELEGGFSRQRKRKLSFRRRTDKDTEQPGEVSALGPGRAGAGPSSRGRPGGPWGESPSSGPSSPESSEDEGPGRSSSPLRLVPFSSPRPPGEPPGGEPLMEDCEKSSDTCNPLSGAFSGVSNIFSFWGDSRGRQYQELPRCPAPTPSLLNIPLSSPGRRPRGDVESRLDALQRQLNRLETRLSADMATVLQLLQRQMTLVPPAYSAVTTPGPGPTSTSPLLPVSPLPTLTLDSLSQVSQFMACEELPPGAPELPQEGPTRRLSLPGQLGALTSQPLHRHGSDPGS
- experimental_protocol: in vitro
Non-standard residues stand in square brackets, D forms with d. Residues, ends and D or L forms follow the SMILES beside them. Dab(3S-OH) = NC[C@H](O)[C@H](N)C(=O)O; Phe(2-F) = N[C@@H](Cc1ccccc1F)C(=O)O; ΔZArg = N=C(N)NCC/C=C(\N)C(=O)O; dOrn = NCCC[C@@H](N)C(=O)O; Dab = NCC[C@H](N)C(=O)O
property: inhibition at 5 min, 256 µM

molecule | data_value
N=C(N)NCC/C=C(\NC(=O)[C@H](CCCCN)NC(=O)[C@H](Cc1ccccc1F)NC(=O)[C@@H]1CCCN1C(=O)[C@@H](CCCN)NC(=O)CNC(=O)[C@H](CCN)NC(=O)[C@@H](NC(=O)[C@@H](N)CCCCN)[C@@H](O)CN)C(=O)O [NOSO-502] (H-K[Dab(3S-OH)][Dab]G[dOrn]P[Phe(2-F)]K[ΔZArg]-OH) | 2.6%
